These data points were gathered from ChEMBL document CHEMBL3861981.

# measurement notes: Cardiotoxicity in rabbit heart assessed as change in sinoatrial node recovery time at 10 uM perfused for 60 mins measured every 10 mins during perfusion by electrophysiology method relative to control
# Assay type: toxicity, tissue-based, Oryctolagus cuniculus
# reported conditions: 1 h
Mark met for Activity under 20%, not met if at or over.

Use these answered entries as a reference point.
| sample smiles | group |
| --- | --- |
| C=C[C@@H]1C[C@]1(NC(=O)[C@@H]1C[C@@H](Oc2ncc(OC)c3ccc(Cl)cc23)CN1C(=O)[C@@H](NC(=O)OC(C)(C)C)C(C)(C)C)C(=O)NS(=O)(=O)C1CC1 | met |
| CC[C@@H]1C[C@]1(NC(=O)[C@@H]1C[C@@H](Oc2ncc(OC)c3ccc(Cl)cc23)CN1C(=O)[C@@H](NC(=O)OC(C)(C)C)C(C)(C)C)C(=O)NS(=O)(=O)C1CC1 | not met |
| COc1cnc(O[C@@H]2C[C@@H](C(=O)N[C@]3(C(=O)NS(=O)(=O)C4CC4)C[C@H]3C3CC3)N(C(=O)[C@@H](NC(=O)O[C@H](C)C(F)(F)F)C3CCCC3)C2)c2cc(Cl)ccc12 | not met |

Q. Confirm or reject: Activity of COc1cnc(O[C@@H]2C[C@@H](C(=O)N[C@]3(C(=O)NS(=O)(=O)C4CC4)C[C@H]3C3CC3)N(C(=O)[C@@H](NC(=O)O[C@H](C)C(F)(F)F)C3CCCCC3)C2)c2cc(Cl)ccc12 lies strictly below 20%
A. not met

====

# measurement notes: Cytotoxicity against human HEK293T cells assessed as decrease in cell viability
parameter measured: CC50

Q. I would be grateful if you could share the reported CC50 for COc1cnc(O[C@@H]2C[C@@H](C(=O)N[C@]3(C(=O)NS(=O)(=O)C4CC4)C[C@H]3C3CC3)N(C(=O)[C@@H](NC(=O)O[C@H](C)C(F)(F)F)C3CCCCC3)C2)c2cc(Cl)ccc12 .
A. 8 to 14 µM

====

# measurement notes: Half life in human liver microsomes
# Assay type: ADME
Catalogue of half-life readings, one per entry.
All answers are understood in h, so give the number only.

Reference set (5 entries):
| sample smiles | half-life / h |
| --- | --- |
| COc1cnc(O[C@@H]2C[C@@H](C(=O)N[C@]3(C(=O)NS(=O)(=O)C4CC4)C[C@H]3C3CC3)N(C(=O)[C@@H](NC(=O)OC(C)(C)C(F)F)C(C)(C)C)C2)c2cc(Cl)ccc12 | 2 |
| CCC(CC)[C@H](NC(=O)O[C@H](C)C(F)(F)F)C(=O)N1C[C@H](Oc2ncc(OC)c3ccc(Cl)cc23)C[C@H]1C(=O)N[C@]1(C(=O)NS(=O)(=O)C2CC2)C[C@H]1C1CC1 | 2 |
| COc1cnc(O[C@@H]2C[C@@H](C(=O)N[C@]3(C(=O)NS(=O)(=O)C4CC4)C[C@H]3C3CC3)N(C(=O)[C@@H](NC(=O)O[C@H](C)C(F)(F)F)C(C)(C)C)C2)c2ccc(Cl)cc12 | 2.37 |
| COc1cnc(O[C@@H]2C[C@@H](C(=O)N[C@]3(C(=O)NS(=O)(=O)C4CC4)C[C@H]3C3CC3)N(C(=O)[C@@H](NC(=O)O[C@H](C)C(F)(F)F)C3CCCC3)C2)c2cc(Cl)ccc12 | 0.817 |
| COc1cnc(O[C@@H]2C[C@@H](C(=O)N[C@]3(C(=O)NS(=O)(=O)C4CC4)C[C@H]3C3CC3)N(C(=O)[C@@H](NC(=O)O[C@H](C)C(F)(F)F)C(C)C)C2)c2cc(Cl)ccc12 | 2.58 |

Lab note: next compound to report on.
Q. I would be grateful if you could share the reported half-life for COc1cnc(O[C@@H]2C[C@@H](C(=O)N[C@]3(C(=O)NS(=O)(=O)C4CC4)C[C@H]3C3CC3)N(C(=O)[C@@H](NC(=O)O[C@H](C)C(F)(F)F)C(C)(C)C)C2)c2cccc(Cl)c12 .
A. 3.33

====

# measurement notes: Cardiotoxicity in rabbit heart assessed as change in heart rate at 10 uM perfused for 60 mins measured every 10 mins during perfusion by electrophysiology method relative to control
# Assay type: toxicity, tissue-based, Oryctolagus cuniculus
# reported conditions: 1 h
parameter measured: Activity
# output: number + unit

Reference set (5 entries):
| sample smiles | parameter measured | observed |
| --- | --- | --- |
| COc1cnc(O[C@@H]2C[C@@H](C(=O)N[C@]3(C(=O)NS(=O)(=O)C4CC4)C[C@H]3C3CC3)N(C(=O)[C@@H](NC(=O)O[C@H](C)C(F)(F)F)C(C)(C)C)C2)c2cc(Cl)ccc12 | Activity | -24% |
| COc1cnc(O[C@@H]2C[C@@H](C(=O)N[C@]3(C(=O)NS(=O)(=O)C4CC4)C[C@H]3C3CC3)N(C(=O)[C@@H](NC(=O)OC(C)(C)C)C(C)(C)C)C2)c2cc(Cl)ccc12 | Activity | -7.5% |
| COc1cnc(O[C@@H]2C[C@@H](C(=O)N[C@]3(C(=O)NS(=O)(=O)C4CC4)C[C@H]3C3CC3)N(C(=O)[C@@H](NC(=O)O[C@H](C)C(F)(F)F)C3CCCC3)C2)c2cc(Cl)ccc12 | Activity | -25% |
| C=C[C@@H]1C[C@]1(NC(=O)[C@@H]1C[C@@H](Oc2ncc(OC)c3ccc(Cl)cc23)CN1C(=O)[C@@H](NC(=O)OC(C)(C)C)C(C)(C)C)C(=O)NS(=O)(=O)C1CC1 | Activity | -10% |
| COc1cnc(O[C@@H]2C[C@@H](C(=O)N[C@]3(C(=O)NS(=O)(=O)C4CC4)C[C@H]3C3CC3)N(C(=O)[C@@H](NC(=O)O[C@H](C)C(F)(F)F)C3CCCCC3)C2)c2cc(Cl)ccc12 | Activity | -16% |

Q. I would be grateful if you could share the reported Activity for CC[C@@H]1C[C@]1(NC(=O)[C@@H]1C[C@@H](Oc2ncc(OC)c3ccc(Cl)cc23)CN1C(=O)[C@@H](NC(=O)OC(C)(C)C)C(C)(C)C)C(=O)NS(=O)(=O)C1CC1 .
A. -35%

====

# measurement notes: Clearance in cannulated Sprague-Dawley rat plasma at 5 mg/kg, iv administered as 10 mins infusion measured up to 24 hrs post dose by LC/MS/MS analysis
# Format: ADME, organism-based
Catalogue of clearance readings, one per entry.
All answers are understood in mL/min/kg, so give the number only.

Reference set (6 entries):
| sample smiles | unit name | clearance |
| --- | --- | --- |
| COc1cnc(O[C@@H]2C[C@@H](C(=O)N[C@]3(C(=O)NS(=O)(=O)C4CC4)C[C@H]3C3CC3)N(C(=O)[C@@H](NC(=O)OC(C)(C)C(F)(F)F)C(C)(C)C)C2)c2cc(Cl)ccc12 | mL/min/kg | 4.7 |
| COc1cnc(O[C@@H]2C[C@@H](C(=O)N[C@]3(C(=O)NS(=O)(=O)C4CC4)C[C@H]3C3CC3)N(C(=O)[C@@H](NC(=O)O[C@H](C)C(F)(F)F)C(C)(C)C)C2)c2cc(Cl)ccc12 | mL/min/kg | 11.5 |
| COc1cnc(O[C@@H]2C[C@@H](C(=O)N[C@]3(C(=O)NS(=O)(=O)C4CC4)C[C@H]3C3CC3)N(C(=O)[C@@H](NC(=O)O[C@H](C)C(F)(F)F)C3CCCC3)C2)c2cc(Cl)ccc12 | mL/min/kg | 12.4 |
| COc1cnc(O[C@@H]2C[C@@H](C(=O)N[C@]3(C(=O)NS(=O)(=O)C4CC4)C[C@H]3C3CC3)N(C(=O)[C@@H](NC(=O)O[C@H](C)C(F)(F)F)C(C)(C)C)C2)c2cc(Cl)cc(Cl)c12 | mL/min/kg | 40.4 |
| CC[C@@H]1C[C@]1(NC(=O)[C@@H]1C[C@@H](Oc2ncc(OC)c3ccc(Cl)cc23)CN1C(=O)[C@@H](NC(=O)OC(C)(C)C)C(C)(C)C)C(=O)NS(=O)(=O)C1CC1 | mL/min/kg | 18 |
| COc1cnc(O[C@@H]2C[C@@H](C(=O)N[C@]3(C(=O)NS(=O)(=O)C4CC4)C[C@H]3C3CC3)N(C(=O)[C@@H](NC(=O)O[C@H](C)C(F)(F)F)C(C)(C)C)C2)c2ccc(Cl)cc12 | mL/min/kg | 30.2 |

Lab note: next compound to report on.
Q. I would be grateful if you could share the reported clearance for COc1ccc2c(O[C@@H]3C[C@@H](C(=O)N[C@]4(C(=O)NS(=O)(=O)C5CC5)C[C@H]4C4CC4)N(C(=O)[C@@H](NC(=O)O[C@H](C)C(F)(F)F)C(C)(C)C)C3)nc(OC)cc2c1 .
A. 14

====

Catalogue of half-life readings, one per entry.
# measurement notes: Half life in human liver microsomes
# Type: ADME
All answers are understood in h, so give the number only.

Reference set (4 entries):
| sample smiles | unit name | half-life |
| --- | --- | --- |
| COc1cnc(O[C@@H]2C[C@@H](C(=O)N[C@]3(C(=O)NS(=O)(=O)C4CC4)C[C@H]3C3CC3)N(C(=O)[C@@H](NC(=O)O[C@H](C)C(F)(F)F)C3CC3)C2)c2cc(Cl)ccc12 | h | 3.33 |
| CC[C@@H]1C[C@]1(NC(=O)[C@@H]1C[C@@H](Oc2ncc(OC)c3ccc(Cl)cc23)CN1C(=O)[C@@H](NC(=O)OC(C)(C)C)C(C)(C)C)C(=O)NS(=O)(=O)C1CC1 | h | 0.567 |
| COc1cnc(O[C@@H]2C[C@@H](C(=O)N[C@]3(C(=O)NS(=O)(=O)C4CC4)C[C@H]3C3CC3)N(C(=O)[C@@H](NC(=O)OC3(C)CCCC3)C(C)(C)C)C2)c2cc(Cl)ccc12 | h | 0.4 |
| COc1cnc(O[C@@H]2C[C@@H](C(=O)N[C@]3(C(=O)NS(=O)(=O)C4CC4)C[C@H]3C3CC3)N(C(=O)[C@@H](NC(=O)O[C@@H]3C[C@@H]4C[C@@H]4C3)C(C)(C)C)C2)c2cc(Cl)ccc12 | h | 1.97 |

Lab note: next molecule to report on.
Q. I would be grateful if you could share the reported half-life for COc1cnc(O[C@@H]2C[C@@H](C(=O)N[C@]3(C(=O)NS(=O)(=O)C4CC4)C[C@H]3C3CC3)N(C(=O)[C@@H](NC(=O)OC(C)(C)C(F)(F)F)C(C)(C)C)C2)c2cc(Cl)ccc12 .
A. 2.13
